Listing: IC50 of selected compounds
- tested-system: β1 (guinea pig atria) (Cavia porcellus, UniProt H0W3H1)
- Construct: The atria and the trachea have been suspended respectively in Ringer oxygenated solution; from tissue; host or cells: isolated atria of Hartley albino guinea pigs
- Sequence (H0W3H1 1-470): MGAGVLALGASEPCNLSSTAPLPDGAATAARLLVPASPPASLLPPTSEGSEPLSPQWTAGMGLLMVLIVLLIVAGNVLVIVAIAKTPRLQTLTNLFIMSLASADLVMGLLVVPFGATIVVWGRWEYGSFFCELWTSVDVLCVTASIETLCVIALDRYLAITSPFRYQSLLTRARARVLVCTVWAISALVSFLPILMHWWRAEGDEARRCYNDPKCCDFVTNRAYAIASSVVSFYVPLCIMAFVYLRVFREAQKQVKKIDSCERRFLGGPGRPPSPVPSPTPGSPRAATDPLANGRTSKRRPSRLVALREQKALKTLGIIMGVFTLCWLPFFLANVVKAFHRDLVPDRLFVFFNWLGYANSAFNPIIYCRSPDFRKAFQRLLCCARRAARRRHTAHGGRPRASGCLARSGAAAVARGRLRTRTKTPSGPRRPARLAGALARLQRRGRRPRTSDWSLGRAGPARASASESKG
- test-protocol: In vitro β-blocking activity, guinea pig atria stimulated with isopropylnoradrenaline (INA)
- Format: cell-based, guinea pig (Hartley albino)
- details: guinea pig atria, β1, positive inotropic effect; INA 10^-8 M, 32° C.; read-out: β-Blocking activity in vitro IC50, Atria inotropism × 10^-7
Where a name gives a salt, the structure may show the parent alone.
# output: bare number, implied unit nM

COc1cccc(N2CC(=O)N(CCNCC(O)COc3ccccc3C#N)C2=O)c1 (stereo not drawn) [In, hydrochloride] ... 130
N#Cc1ccccc1OCC(O)CNCCN1C(=O)CN(c2ccc(Cl)cc2)C1=O (stereo not drawn) ... 270
O=C1CN(c2ccccc2)C(=O)N1CCNCC(O)COc1ccccc1 (stereo not drawn) [Ia, hydrochloride] ... 430
Cc1cccc(OCC(O)CNCCN2C(=O)CN(c3ccccc3)C2=O)c1 (stereo not drawn) ... 940

We now examine a further compound.
Which measured IC50 value corresponds to N#Cc1ccccc1OCC(O)CNCCN1C(=O)CN(c2ccccc2)C1=O (stereo not drawn) ?
90
